Listing: viability, T/C of selected compounds
Test system: 786-0 complex spheroid viability
Assay: Anticancer human tumor 786-0 cell line growth inhibition;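 note: spheroids exposed to agents for seven days before readout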
Conditions: second compound 0.316 µM; first compound 0.00316 µM; hits give low values
Measure: viability, T/C (%)

>>> print(df.to_string())
                                   compound                     target_system         measure  unit_text  recorded_number
0  O=C(C=Cn1cnc(-c2cc(C(F)(F)F)cc(C(F)(F)F)c2)n1)NNc1cnccn1 + NC1CCC(NC2CC2c2ccccc2)CC1  786-0 complex spheroid viability  viability, T/C          %             97.4
1  O=C(C=Cn1cnc(-c2cc(C(F)(F)F)cc(C(F)(F)F)c2)n1)NNc1cnccn1 + NC1CC1c1ccc(-c2cccc(O)c2)cc1  786-0 complex spheroid viability  viability, T/C          %              100
2  CC(C)CC(NC(=O)CNC(=O)c1cc(Cl)ccc1Cl)B1OC(=O)CC(CC(=O)O)(C(=O)O)O1 (centres undefined) + NC1CC1c1ccc(-c2cccc(O)c2)cc1  786-0 complex spheroid viability  viability, T/C          %             97.7
3  COc1cc(Nc2ncc3c(n2)-c2ccc(Cl)cc2C(c2c(F)cccc2OC)=NC3)ccc1C(=O)O + NC1CCC(NC2CC2c2ccccc2)CC1  786-0 complex spheroid viability  viability, T/C          %              116
4  CC(C)CC(NC(=O)C(Cc1ccccc1)NC(=O)c1cnccn1)B(O)O (centres undefined) + NC1CCC(NC2CC2c2ccccc2)CC1  786-0 complex spheroid viability  viability, T/C          %             36.6
5  COc1cc(Nc2ncc3c(n2)-c2ccc(Cl)cc2C(c2c(F)cccc2OC)=NC3)ccc1C(=O)O + NC1CC1c1ccc(-c2cccc(O)c2)cc1  786-0 complex spheroid viability  viability, T/C          %              105
6  Cn1ncnc1C1c2n[nH]c(=O)c3cc(F)cc(c23)NC1c1ccc(F)cc1 (centres undefined) + NC1CC1c1ccc(-c2cccc(O)c2)cc1  786-0 complex spheroid viability  viability, T/C          %              101
7  Cn1ncnc1C1c2n[nH]c(=O)c3cc(F)cc(c23)NC1c1ccc(F)cc1 (centres undefined) + NC1CCC(NC2CC2c2ccccc2)CC1  786-0 complex spheroid viability  viability, T/C          %              121
8  CC(C)CC(NC(=O)C(Cc1ccccc1)NC(=O)c1cnccn1)B(O)O (centres undefined) + NC1CC1c1ccc(-c2cccc(O)c2)cc1  786-0 complex spheroid viability  viability, T/C          %             53.5
